Hey, just so you know, these numbers are from paper PMC7231638.

Biological target: Mre11ND H52S (Pyrococcus furiosus, UniProt Q8U1N9 1-342, H52S)
Assay: fluorescence polarization

binder: FAM 40-mer dsDNA (dsDNA) DNA 1: GTGTTCGGACTCTGCCTCAAGACGGTAGTCAACGTGCTTG DNA 2: CAAGCACGTTGACTACCGTCTTGAGGCAGAGTCCGAACAC
Kd: 3.17 µM
